Every entry's value here was drawn from ChEMBL document CHEMBL3886529.

Target: cAMP and cAMP-inhibited cGMP 3',5'-cyclic phosphodiesterase 10A (Rattus norvegicus)
Sequence (Q9QYJ6 whole entry): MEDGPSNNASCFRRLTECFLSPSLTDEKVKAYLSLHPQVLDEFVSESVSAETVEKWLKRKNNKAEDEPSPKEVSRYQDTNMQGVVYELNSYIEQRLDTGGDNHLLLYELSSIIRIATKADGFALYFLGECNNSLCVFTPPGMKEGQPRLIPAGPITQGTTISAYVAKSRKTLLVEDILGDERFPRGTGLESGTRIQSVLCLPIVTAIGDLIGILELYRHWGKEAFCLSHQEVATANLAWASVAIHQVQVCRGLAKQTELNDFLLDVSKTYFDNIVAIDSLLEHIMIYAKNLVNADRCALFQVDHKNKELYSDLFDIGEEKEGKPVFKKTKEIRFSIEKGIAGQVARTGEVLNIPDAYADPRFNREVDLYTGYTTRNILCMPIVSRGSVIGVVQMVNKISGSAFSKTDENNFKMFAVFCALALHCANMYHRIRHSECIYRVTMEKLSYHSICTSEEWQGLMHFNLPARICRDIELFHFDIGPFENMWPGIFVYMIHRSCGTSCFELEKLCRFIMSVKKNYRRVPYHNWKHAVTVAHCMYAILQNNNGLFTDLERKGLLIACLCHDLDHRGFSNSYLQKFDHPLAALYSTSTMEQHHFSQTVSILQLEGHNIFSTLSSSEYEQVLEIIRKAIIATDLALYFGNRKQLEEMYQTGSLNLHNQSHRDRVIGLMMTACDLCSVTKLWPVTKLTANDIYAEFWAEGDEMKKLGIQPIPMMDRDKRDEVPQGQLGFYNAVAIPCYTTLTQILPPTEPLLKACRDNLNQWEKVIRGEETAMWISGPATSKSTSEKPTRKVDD
Test: In Vitro Assay rPDE10: Rat recombinant PDE10a (rPDE10a) was expressed in Sf9 cells using a recombinant rPDE10a baculovirus construct. Cells were harvested after 48 h of infection and the rPDE10a protein was purified by metal chelate chromatography on Ni-sepharose 6FF. Tested compounds were dissolved and diluted in 100% DMSO to a concentration 100 fold of the final concentration in the assay. Compound dilutions (0.4 uL) were added in 384 well plates to 20 uL of incubation buffer (50 mM Tris pH 7.8, 8.3 mM MgCl2, 1.7 mM EGTA). 10 uL of rPDE10a enzyme in incubation buffer was added and the reaction was started by addition of 10 uL substrate to a final concentration of 60 nM cAMP and 0.008 uCi 3H-cAMP. The reaction was incubated for 60 min at rt. After incubation, the reaction was stopped with 20 uL of 17.8 mg/mL PDE SPA beads. After sedimentation of the beads during 30 min the radioactivity was measured in a Perkin Elmer Topcount scintillation counter and results were expressed as cpm. For blank values the enz
ENDPOINT_LABEL: pIC50
One number for each entry, as −log10 of the molar value.

Below, 2 compounds whose answers are already recorded.
{"COMPOUND": "O=C1Nc2ccc(-c3cnc(N4CCOCC4)c4nc(CCc5ccc6ccccc6n5)cn34)cc2C1(F)F", "EXPERIMENTAL_SYSTEM": "cAMP and cAMP-inhibited cGMP 3',5'-cyclic phosphodiesterase 10A (Rattus norvegicus)", "pIC50": 7.72}
{"COMPOUND": "O=C(O)c1cc(/C=C/c2cn3ccnc(N4CCOCC4)c3n2)nc2ccccc12", "EXPERIMENTAL_SYSTEM": "cAMP and cAMP-inhibited cGMP 3',5'-cyclic phosphodiesterase 10A (Rattus norvegicus)", "pIC50": 8.05}

Task item: Report value: pIC50, system: cAMP and cAMP-inhibited cGMP 3',5'-cyclic phosphodiesterase 10A (Rattus norvegicus), compound: `c1ccc2nc(OCc3cn4c(C5CCNCC5)cnc(N5CCOCC5)c4n3)ccc2c1`
Reply: 6.25
